# target.of.assay: SARS-COV-2 RBD-MMH (SARS-COV-2 RBD extracellular domain with C-terminal myc-myc-hexahistidine tag) (SARS-CoV-2)
endpoint.label: t½ at pH 6.0 (min)
Answers are plain numbers, in min.

Examples from the recorded data:
{"binder": "mAb14232 (antibody, V domains shown) VH: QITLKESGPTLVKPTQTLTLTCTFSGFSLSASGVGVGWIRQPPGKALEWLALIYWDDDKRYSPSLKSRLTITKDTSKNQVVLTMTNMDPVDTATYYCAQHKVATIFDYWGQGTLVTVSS VL: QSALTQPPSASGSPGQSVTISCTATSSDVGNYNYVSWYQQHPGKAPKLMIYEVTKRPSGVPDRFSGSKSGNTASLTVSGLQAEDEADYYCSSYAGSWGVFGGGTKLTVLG", "unit.of.measurement": "min", "t½ at pH 6.0": 0.9}
{"binder": "mAb15162 (antibody, V domains shown) VH: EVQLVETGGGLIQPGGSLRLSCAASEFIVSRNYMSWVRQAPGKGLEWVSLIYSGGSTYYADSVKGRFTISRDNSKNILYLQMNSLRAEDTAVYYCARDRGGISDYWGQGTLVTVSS VL: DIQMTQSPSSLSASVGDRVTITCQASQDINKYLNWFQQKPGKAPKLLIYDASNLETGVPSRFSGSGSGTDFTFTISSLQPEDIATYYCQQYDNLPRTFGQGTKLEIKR", "unit.of.measurement": "min", "t½ at pH 6.0": 3.3}

Next, consider the following binder.
Ask: Entry mAb15151 (antibody, V domains shown) VH: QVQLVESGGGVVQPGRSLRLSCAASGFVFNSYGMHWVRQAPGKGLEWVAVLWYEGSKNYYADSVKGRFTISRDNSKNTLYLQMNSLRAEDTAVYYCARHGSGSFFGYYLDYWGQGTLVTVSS VL: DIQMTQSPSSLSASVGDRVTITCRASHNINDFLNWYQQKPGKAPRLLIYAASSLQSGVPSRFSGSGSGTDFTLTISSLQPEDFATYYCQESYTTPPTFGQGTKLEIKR needs its t½ at pH 6.0 filled in; supply it.
Reply: 2.5

Each recorded value in this set is attributed to patent US20260069689A1.
